Origin of values: the supplement of paper PMC6757056

I'd be grateful if you could share measured normalized RNA/DNA level with ligand (log10) for these entries.
B1: library; a variant is named by its letters at N, in order (parent)
chain: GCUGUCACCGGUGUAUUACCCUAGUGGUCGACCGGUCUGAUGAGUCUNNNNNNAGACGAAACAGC

Variants of: B1
Assay: normalized RNA/DNA level with ligand (relative to sTRSVctl = 100) (log10 (% of sTRSVctl)); ligand: hypoxanthine (xanthine aptamer); higher = less ribozyme self-cleavage, higher mRNA level
Details: ligand concentration (+) RNA-Seq: 5 mM, HEK293T, reporter: mCherry (pCS4076), ligand present: yes
Numbers only.

# normalized RNA/DNA level with ligand (log10) lookup, item CAGUAU
1.92

# normalized RNA/DNA level with ligand (log10) lookup, item UAGUCG
1.92

# normalized RNA/DNA level with ligand (log10) lookup, item CUUACU
1.96

# normalized RNA/DNA level with ligand (log10) lookup, item ACAUUU
1.9

Provide normalized RNA/DNA level with ligand (log10) for all items below, preserving their order.
1. CCGCUA
2. CCAAGA
3. AUAAAC
4. CAGGUC
5. AGUUUC
6. CUAUAG
7. CGCAGU
8. CUAGGG

1: 2.03; 2: 1.95; 3: 1.89; 4: 1.94; 5: 1.92; 6: 1.93; 7: 1.94; 8: 1.89

Provide normalized RNA/DNA level with ligand (log10) for all items below, preserving their order.
1. CCAGAG
2. CGUCAC

[1.95, 1.96]

Provide normalized RNA/DNA level with ligand (log10) for all items below, preserving their order.
1. GGCAAU
2. CAGCGA
3. ACUUUC
4. GUCUGA
5. AAUCAU
6. CAUCGU

[1.92, 1.94, 1.98, 1.95, 1.9, 2]
